- Tested on: SF-295
- PROTOCOL DESCRIPTION: NCI tumour cell line growth inhibition, 48 h
Activity calls are given as the source filed them. No stated cut-off is given here; in the data, active = GI50 up to about 1.1 µM and inactive = higher.
# GI50 per record follows

Consider the worked cases shown below.
CC(C)(C)OC(=O)N/N=C(/N)Cc1ccc(Cl)cc1 | > 100 µM (inactive)
Nc1ccc2nc(NCc3ccc(F)cc3)cnc2c1 | > 100 µM (inactive)
COC(=O)[C@@]12CC[C@]1(C(=O)OC)C1C(C)=CC(=O)O[C@@]12C (stereo partly specified) | > 100 µM (inactive)
O=C(CN1C(=O)c2ccccc2C1=O)C(O)CN1C(=O)c2ccccc2C1=O (stereo unspecified) | 31.3 µM (inactive)
CCN(CC)CCOc1ccc(C(O)(Cc2ccc(OC)cc2)c2ccccc2)cc1 (stereo unspecified) | 17.7 µM (inactive)

### Prompt Need GI50 of C[C@]12C(=O)OC[C@H](c3ccccc3)N1C(=O)N(Cc1ccccc1)[C@@H]2CO , thanks.
### Response > 100 µM (inactive)
